# credit: ChEMBL document CHEMBL1145929

biological target: 5-hydroxytryptamine receptor 2A (Rattus norvegicus, UniProt P14842)
Sequence (P14842 whole entry): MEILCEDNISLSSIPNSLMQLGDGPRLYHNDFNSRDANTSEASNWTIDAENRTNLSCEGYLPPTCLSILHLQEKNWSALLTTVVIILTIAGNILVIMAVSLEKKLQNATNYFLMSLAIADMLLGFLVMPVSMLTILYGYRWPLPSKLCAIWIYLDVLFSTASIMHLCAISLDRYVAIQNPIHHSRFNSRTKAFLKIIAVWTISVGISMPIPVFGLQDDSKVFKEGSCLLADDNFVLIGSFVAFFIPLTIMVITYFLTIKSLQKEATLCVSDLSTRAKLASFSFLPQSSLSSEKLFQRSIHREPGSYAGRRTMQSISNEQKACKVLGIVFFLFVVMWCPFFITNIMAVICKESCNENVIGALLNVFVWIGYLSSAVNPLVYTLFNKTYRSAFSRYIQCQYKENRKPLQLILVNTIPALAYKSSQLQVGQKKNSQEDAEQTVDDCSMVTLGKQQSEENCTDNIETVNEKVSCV
pIC50: −log10 of the molar value.
EXPERIMENTAL ENDPOINT: pIC50

Example cases with answers are listed next.
{"COMPOUND": "Fc1cccc(OC(c2cccc(F)c2)C2CCNCC2)c1 (stereo in doubt; 15u)", "pIC50": "< 6.00"}
{"COMPOUND": "Clc1cccc(OC(c2ccccc2)C2CCNCC2)c1 (stereo in doubt; (-)-15l)", "pIC50": "< 6.00"}

Task: Tell me its pIC50 on 5-hydroxytryptamine receptor 2A (Rattus norvegicus, UniProt P14842): Fc1cccc(C(Oc2ccccc2F)C2CCNCC2)c1 (single isomer, unassigned; (-))
Output: < 6.00
